target: human liver Cat B (Homo sapiens, UniProt P07858); test: Cathepsin B inhibition assay; conditions: read-out: Cathepsin B IC50; Table S1 counter-screening
quantity_kind: IC50 (nM)

{"columns": ["compound", "value_reported"],
 "data": [
  ["CC(C)[C@H](NC(=O)[C@H](C)NC(=O)[C@@H](NC(=O)c1ccccc1)C(C)(C)C)C(=O)C(=O)NCc1ccccc1 [Compound 38]", 510]
]}

* * *

Target chain: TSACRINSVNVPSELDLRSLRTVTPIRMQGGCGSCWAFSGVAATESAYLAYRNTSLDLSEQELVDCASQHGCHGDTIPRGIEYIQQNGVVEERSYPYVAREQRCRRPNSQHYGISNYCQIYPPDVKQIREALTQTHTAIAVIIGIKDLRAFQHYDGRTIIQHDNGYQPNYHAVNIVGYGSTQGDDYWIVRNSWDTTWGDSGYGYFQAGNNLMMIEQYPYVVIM
quantity_kind: IC50 (nM)

{"columns": ["chemical_smiles", "value_reported"],
 "data": [
  ["CC(C)[C@H](NC(=O)[C@H](C)NC(=O)[C@H](Cc1ccccc1)NC(=O)c1ccccc1)C(=O)C(=O)NCC(=O)N1CC[N+](C)(C)CC1.O=C[O-]", 11],
  ["CC(C)[C@H](NC(=O)[C@H](C)NC(=O)[C@@H](NC(=O)C1CC[N+](C)(C)CC1)C(C)(C)C)C(=O)C(=O)NCc1ccccc1.O=C[O-]", 4]
]}

* * *

experiment: Measurement of LogD7.4 (n-octanol/PBS shake); assay type: physicochemical; conditions: single determination, n-octanol/PBS pH 7.4; read-out: Log D7.4
Label 1.0 when logD at 1.5 h is at or above 3; anything below gets 0.0.

{"columns": ["compound", "discrete_label"],
 "data": [
  ["CC(C)[C@H](NC(=O)[C@H](C)NC(=O)[C@@H](NC(=O)C1CC[N+](C)(C)CC1)C(C)(C)C)C(=O)C(=O)NCc1ccccc1.O=C[O-] [Compound 32]", 0.0],
  ["CC(C)[C@H](NC(=O)[C@H](C)NC(=O)[C@@H](NC(=O)c1ccnc2ccccc12)C(C)(C)C)C(=O)C(=O)NC1CCCCC1 [Compound 26]", 1.0],
  ["CC(C)[C@H](NC(=O)[C@H](C)NC(=O)[C@H](Cc1ccccc1)NC(=O)c1ccccc1)C(=O)C(=O)NCC(=O)N1CCN(C)CC1 [Compound 45]", 0.0],
  ["CC(C)[C@H](NC(=O)[C@H](C)NC(=O)[C@@H](NC(=O)c1ccccc1)C(C)(C)C)C(=O)C(=O)NCc1ccccc1 [Compound 38]", 1.0],
  ["CC(C)[C@H](NC(=O)[C@H](C)NC(=O)[C@@H](NC(=O)c1cccc2ccccc12)C(C)(C)C)C(=O)C(=O)NC1CCCCC1 [Compound 25]", 1.0]
]}

* * *

test: Pharmacokinetics after oral and iv dosing to rats; format: in vivo, Sprague-Dawley rat; settings: male, Sprague-Dawley, plasma; rat, 5 mg/kg po, mean ± SE, n = 3
quantity_kind: Cmax (nM)

{"columns": ["compound", "value_reported"],
 "data": [
  ["CC(C)[C@H](NC(=O)[C@H](C)NC(=O)[C@@H](NC(=O)c1ccccc1)C(C)(C)C)C(=O)C(=O)NC1CC1 [Compound 35]", 1140],
  ["CC(C)[C@H](NC(=O)[C@H](C)NC(=O)[C@@H](NC(=O)C1CC[N+](C)(C)CC1)C(C)(C)C)C(=O)C(=O)NCc1ccccc1.O=C[O-] [Compound 32]", 20],
  ["CC(C)[C@H](NC(=O)[C@H](C)NC(=O)[C@H](Cc1ccccc1)NC(=O)c1ccccc1)C(=O)C(=O)NCC(=O)N1CC[N+](C)(C)CC1.O=C[O-] [Compound 52]", 7],
  ["CC(C)[C@H](NC(=O)[C@H](C)NC(=O)[C@@H](NC(=O)c1ccccc1)C(C)(C)C)C(=O)C(=O)NCc1ccccc1 [Compound 38]", 732],
  ["CC(C)[C@H](NC(=O)[C@H](C)NC(=O)[C@@H](N1Cc2ccccc2C1=O)C(C)(C)C)C(=O)C(=O)NCc1ccccc1 [Compound 28]", 663]
]}
